Where a name gives a salt, the structure may show the parent alone.
readout_type: melting point

**Q:** Fill in reported melting point for this entry: CS(=O)(=O)Cc1cc(Nc2cc(NC3CC3)n3ncc(C#N)c3n2)ccc1OC(F)F
**A:** > 260 °C

**Q:** Check the records and state melting point for C[S+]([O-])Cc1cc(Nc2cc(NC3CC3)n3ncc(C#N)c3n2)ccc1C1=CCCNC1.O=C(O)C(F)(F)F (racemic)
**A:** 126 to 130 °C

**Q:** Output melting point of CC(CCN)c1ccc(Nc2cc(NC3CC3)n3ncc(C#N)c3n2)cc1C[S+](C)[O-] (racemic) (as salt: trifluoroacetic acid salt) [Example 64, mono trifluoroacetic acid salt]
**A:** 119 to 123 °C

Every entry's value here was drawn from patent US10227344B2.
